From: ChEMBL document CHEMBL1671864

- test description: Tmax in healthy human plasma at 80 mg, po administered as four 20 mg immediate release tablets daily for 3 days during 10 hrs overnight fasting state measured after 1 day
- Assay type: ADME, organism-based
readout type: Tmax (h)
Give the number; h is assumed, so skip it.

QUERY: Dear colleague, I am looking for the recorded Tmax of the following molecule: "C[C@H]1[C@H](N2CCS(=O)(=O)CC2)O[C@@H]2O[C@@]3(C)CC[C@H]4[C@H](C)CC[C@@H]1[C@@]24OO3"
RESULT: 1.5

---

- test description: Mean residence time in healthy human at 40 mg, po administered as two 20 mg immediate release tablets daily for 3 days during 10 hrs overnight fasting state measured after 1 day
- Format: ADME, organism-based
- setup conditions: in vivo
readout type: MRT (h)
Write the value in h as a bare number.

QUERY: # MRT lookup, item C[C@H]1[C@H](N2CCS(=O)(=O)CC2)O[C@@H]2O[C@@]3(C)CC[C@H]4[C@H](C)CC[C@@H]1[C@@]24OO3 [ARTEMIFONE]
RESULT: 2.91

---

- test description: Tmax in healthy human plasma at 30 mg, po administered as single ascending doses as solution during 10 hrs overnight fasting state
- Assay type: ADME, organism-based
readout type: Tmax
Please report the result as a number followed by the unit.

QUERY: Suppose we examine the compound "C[C@H]1[C@H](N2CCS(=O)(=O)CC2)O[C@@H]2O[C@@]3(C)CC[C@H]4[C@H](C)CC[C@@H]1[C@@]24OO3" ; what Tmax value has been reported?
RESULT: 30 min

---

- test description: AUC in healthy human plasma at 80 mg, po administered as four 20 mg immediate release tablets daily for 3 days during 10 hrs overnight fasting state measured after 3 day
- Format: ADME, organism-based
- Parameters: time < 10 hr, dose 80 mg, route oral
readout type: AUC at 10 h (ng·h/mL)
Write it as a number; the unit ng·h/mL goes unstated.

QUERY: # lookup: AUC at 10 h of C[C@H]1[C@H](N2CCS(=O)(=O)CC2)O[C@@H]2O[C@@]3(C)CC[C@H]4[C@H](C)CC[C@@H]1[C@@]24OO3 [ARTEMIFONE]
RESULT: 337

---

- test description: Apparent oral clearance in healthy human at 80 mg, po administered as four 20 mg immediate release tablets daily for 3 days during 10 hrs overnight fasting state measured after 1 day
- Format: ADME, organism-based
- setup conditions: in vivo
readout type: CL/F (mL/min)
Reply with just the number (in mL/min).

QUERY: What does the record list as CL/F for C[C@H]1[C@H](N2CCS(=O)(=O)CC2)O[C@@H]2O[C@@]3(C)CC[C@H]4[C@H](C)CC[C@@H]1[C@@]24OO3 [ARTEMIFONE] ?
RESULT: 3880

---

- Test system: Plasma
- test description: Ratio of Cmax in healthy human plasma at 40 mg, po administered as two 20 mg immediate release tablets daily for 3 days during 10 hrs overnight fasting state measured after 1 day to Cmax in healthy human plasma at 40 mg, po administered as two 20 mg immediate release tablets daily for 3 days during 10 hrs overnight fasting state measured after 3 day
- Assay type: ADME, organism-based
- setup conditions: in vivo
readout type: Ratio (%)
Answer in %, number only, no unit symbol.

QUERY: Could you share which Ratio value was measured for "C[C@H]1[C@H](N2CCS(=O)(=O)CC2)O[C@@H]2O[C@@]3(C)CC[C@H]4[C@H](C)CC[C@@H]1[C@@]24OO3" ?
RESULT: 98.5

---

- test description: Mean residence time in healthy human at 40 mg, po administered as single ascending doses as solution during 10 hrs overnight fasting state
- Type: ADME, organism-based
- setup conditions: in vivo
readout type: MRT (h)
A number alone suffices; assume h.

QUERY: Record request: MRT value, item "C[C@H]1[C@H](N2CCS(=O)(=O)CC2)O[C@@H]2O[C@@]3(C)CC[C@H]4[C@H](C)CC[C@@H]1[C@@]24OO3"
RESULT: 2.39

---

- test description: Apparent oral clearance in healthy human at 80 mg, po administered as single immediate release tablets during 10 hrs overnight fasting state
- Assay type: ADME, organism-based
- setup conditions: in vivo
readout type: CL/F
# answer = value followed by unit

QUERY: For the compound shown here, C[C@H]1[C@H](N2CCS(=O)(=O)CC2)O[C@@H]2O[C@@]3(C)CC[C@H]4[C@H](C)CC[C@@H]1[C@@]24OO3 [ARTEMIFONE] , give the reported CL/F.
RESULT: 4740 mL/min

---

- test description: Half life in healthy human plasma at 80 mg, po administered as four 20 mg immediate release tablets daily for 3 days during 10 hrs overnight fasting state measured after 1 day
- Format: ADME, organism-based
readout type: half-life (h)
Numbers only; they are read as h.

QUERY: Look up half-life for this compound: "C[C@H]1[C@H](N2CCS(=O)(=O)CC2)O[C@@H]2O[C@@]3(C)CC[C@H]4[C@H](C)CC[C@@H]1[C@@]24OO3"
RESULT: 2.97

---

- test description: Mean residence time in healthy human at 20 mg, po administered as single ascending doses as solution during 10 hrs overnight fasting state
- Assay type: ADME, organism-based
- setup conditions: in vivo
readout type: MRT (h)
The reply should contain only the number, in h.

QUERY: Look up MRT: "C[C@H]1[C@H](N2CCS(=O)(=O)CC2)O[C@@H]2O[C@@]3(C)CC[C@H]4[C@H](C)CC[C@@H]1[C@@]24OO3"
RESULT: 1.79

---

- test description: Cmax in healthy human plasma at 80 mg, po administered as four 20 mg immediate release tablets daily for 3 days during 10 hrs overnight fasting state measured after 1 day
- Type: ADME, organism-based
- Parameters: dose 80 mg, route oral
readout type: Cmax (ng/mL)
Provide the reading as a plain figure in ng/mL.

QUERY: Give the measured Cmax of "C[C@H]1[C@H](N2CCS(=O)(=O)CC2)O[C@@H]2O[C@@]3(C)CC[C@H]4[C@H](C)CC[C@@H]1[C@@]24OO3" .
RESULT: 155

---

- test description: Mean residence time in healthy human at 10 mg, po administered as single ascending doses as solution during 10 hrs overnight fasting state
- Assay type: ADME, organism-based
- setup conditions: in vivo
readout type: MRT (min)
Number only, in min; omit the unit.

QUERY: Given the compound "C[C@H]1[C@H](N2CCS(=O)(=O)CC2)O[C@@H]2O[C@@]3(C)CC[C@H]4[C@H](C)CC[C@@H]1[C@@]24OO3" , what is its reported MRT?
RESULT: 58.8

---

- test description: Apparent oral clearance in healthy human at 40 mg, po administered as two 20 mg immediate release tablets daily for 3 days during 10 hrs overnight fasting state measured after 1 day
- Assay type: ADME, organism-based
- setup conditions: in vivo
readout type: CL/F (mL/min)
Respond with the bare value in mL/min.

QUERY: Quick one: CL/F of C[C@H]1[C@H](N2CCS(=O)(=O)CC2)O[C@@H]2O[C@@]3(C)CC[C@H]4[C@H](C)CC[C@@H]1[C@@]24OO3 [ARTEMIFONE] ?
RESULT: 3630

---

- test description: Half life in healthy human plasma at 80 mg, po administered as four 20 mg immediate release tablets daily for 3 days during 10 hrs overnight fasting state measured after 3 day
- Type: ADME, organism-based
readout type: half-life (h)
Record the value in h, omitting the unit from your answer.

QUERY: Please report the recorded half-life for "C[C@H]1[C@H](N2CCS(=O)(=O)CC2)O[C@@H]2O[C@@]3(C)CC[C@H]4[C@H](C)CC[C@@H]1[C@@]24OO3" .
RESULT: 3.07

---

- test description: AUC in healthy human plasma at 80 mg, po administered as single immediate release tablets during 10 hrs overnight fasting state
- Format: ADME, organism-based
- Set-up: dose 80 mg, time < 10 hr, route oral
readout type: AUC at 10 h (ng·h/mL)
Kindly provide the numeric value in ng·h/mL only, without the unit symbol.

QUERY: Please give the measured AUC at 10 h for this molecule: "C[C@H]1[C@H](N2CCS(=O)(=O)CC2)O[C@@H]2O[C@@]3(C)CC[C@H]4[C@H](C)CC[C@@H]1[C@@]24OO3"
RESULT: 282

---

- test description: AUC in healthy human plasma at 80 mg, po administered as four 20 mg immediate release tablets daily for 3 days during 10 hrs overnight fasting state measured after 1 day
- Assay type: ADME, organism-based
- Set-up: dose 80 mg, time < 10 hr, route oral
readout type: AUC at 10 h (ng·h/mL)
// units = ng·h/mL; emit number, no label

QUERY: What value of measured AUC at 10 h is listed for C[C@H]1[C@H](N2CCS(=O)(=O)CC2)O[C@@H]2O[C@@]3(C)CC[C@H]4[C@H](C)CC[C@@H]1[C@@]24OO3 [ARTEMIFONE] ?
RESULT: 343
